Test system: M19-MEL melanoma
assay.method.text: NCI tumour cell line growth inhibition, 48 h
What TGI was measured for each of the following?

Enquiry: Look up TGI of Cc1ccc(C2CC(c3ccco3)=NN2c2ccccc2)o1 (stereo not given) and report it.
Return: > 100 µM

Enquiry: Look up TGI of NC1CCCC[C@H]1N.N[C@@H]1CCCC[C@@H]1N.O=C(P(=O)([O-])[O-])P(=O)([O-])[O-].[Pt+4].[Pt+4] and report it.
Return: > 100 µM

Enquiry: Look up TGI of C=CCn1c(=O)n(CC=C)c(=O)n(CC=C)c1=O and report it.
Return: > 100 µM

Enquiry: Look up TGI of O=C(/C=C/c1c(O)ccc2ccccc12)c1ccc2ccccc2c1 and report it.
Return: 35.9 µM

Enquiry: Look up TGI of O=c1[nH]cc(COCC(F)(F)C(F)(F)C(F)(F)C(F)F)c(=O)[nH]1 and report it.
Return: > 100 µM
